Source: patent US20250382344A1

Biological target: T1, human neuropeptide Y2 receptor (human, UniProt P49146 1-381)
T1 sequence (looked up): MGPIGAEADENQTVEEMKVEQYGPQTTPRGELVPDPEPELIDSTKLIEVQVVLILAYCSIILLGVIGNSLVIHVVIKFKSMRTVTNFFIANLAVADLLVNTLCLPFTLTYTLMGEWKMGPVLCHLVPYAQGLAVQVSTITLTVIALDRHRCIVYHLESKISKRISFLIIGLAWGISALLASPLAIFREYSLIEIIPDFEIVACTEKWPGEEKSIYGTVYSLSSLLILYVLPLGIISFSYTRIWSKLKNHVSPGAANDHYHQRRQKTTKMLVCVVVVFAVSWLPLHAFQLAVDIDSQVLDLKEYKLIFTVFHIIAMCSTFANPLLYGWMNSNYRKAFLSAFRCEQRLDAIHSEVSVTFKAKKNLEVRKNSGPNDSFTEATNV
Experiment: cell-based or functional assay
*1 amine or outer side, *2 acyl side, *3 side chain or, on linkers, in order; H or OH if unused. Where no end group is shown, it is not given here. Side-chain parts run from the residue outwards. [ ]: non-standard residue; d: D form. The star is where a group is joined. C20 diacid = O=C(O)CCCCCCCCCCCCCCCCCCC(=O)*; γGlu = O=C(O)[C@H](CCC(=O)[*:2])N[*:1]; dtOrn = not defined here; Aib = CC(C)(N)C(=O)O; Ahx = NCCCCCC(=O)O
reportedProperty: EC50, CreLuc reporter, 0.5% hP
Record the result as a number with its unit.

Some binders with known EC50, CreLuc reporter, 0.5% hP results, for comparison:
YXEGTFTSDYSIXLDKQAQXAFVRYLINKXTRQRY (Aib at 2, 13, 20, 30; Lys29 epsilon-amino: C18DA-gGlu-gGlu-gGlu-gGlu-gGlu-gGlu-eLys; C-terminal amide) [Compound 153]
40 nM
YXEGTFTSDYSIXLDRQAQXAFVRHLINKXTRQRY (Aib at 2, 13, 20, 30; Lys29 epsilon-amino: C18DA-gGlu-gGlu-gGlu-gGlu-gGlu-gGlu-eLys; C-terminal amide) [Compound 147]
11.1 nM
Y[Aib]EGTFTSDYSI[Aib]LEKQAQ[Aib]AFVRHLINK([dtOrn-γGlu-γGlu-γGlu-γGlu-γGlu-γGlu-C20 diacid])[Aib]TRQRY-NH2 (reading uncertain) [Compound 97]
11.7 nM

Exercise: Hello, please tell me recorded EC50, CreLuc reporter, 0.5% hP for this one: YXEGTFTSDYSIXLEKQAQXAFVRHLINKXTRQRX (Aib at 2, 13, 20, 30; Phe4F at 35; Lys29 epsilon-amino: C18DA-gGlu-gGlu-gGlu-gGlu-gGlu-gGlu-eLys; C-terminal amide) [Compound 86]
Key: 33.2 nM

Exercise: Hello, please tell me recorded EC50, CreLuc reporter, 0.5% hP for this one: Y[Aib]EGTFTSDYSI[Aib]LEKQAQ[Aib]AFVRHLINK([Ahx-γGlu-γGlu-γGlu-γGlu-γGlu-γGlu-C20 diacid])[Aib]TRQRY-NH2 [Compound 157]
Key: 15.9 nM

Exercise: Hello, please tell me recorded EC50, CreLuc reporter, 0.5% hP for this one: YXEGTFTSDYSIXLDKQAQXAFVRHLINKXTRQRY (Aib at 2, 13, 20, 30; Lys29 epsilon-amino: C18DA-gGlu-gGlu-gGlu-gGlu-gGlu-gGlu-eLys; C-terminal amide) [Compound 105]
Key: 19.9 nM

Exercise: Hello, please tell me recorded EC50, CreLuc reporter, 0.5% hP for this one: YXEGTFTSDYSIXLEKQAQXEFVRHLINKXTRQRY (Aib at 2, 13, 20, 30; Lys29 epsilon-amino: C18DA-gGlu-gGlu-gGlu-gGlu-gGlu-OEG-OEG; C-terminal amide) [Compound 98]
Key: 27.3 nM

Exercise: Hello, please tell me recorded EC50, CreLuc reporter, 0.5% hP for this one: YXEGTFTSDYSIXLEKQAQXAFVRHLINKXTRQRY (Aib at 2, 13, 20, 30; Lys29 epsilon-amino: C20DA-gGlu-gGlu-gGlu-gGlu-gGlu-AHX; C-terminal amide) [Compound 167]
Key: 13.3 nM
